- Tested on: human plasma stability, LC/MS/MS, 180 min
- EXPERIMENT NOTES: human plasma degradation, percent remaining – biochemical, LC/MS/MS, 180 min, dry powder, ADME assay, late-stage follow-up (AID 1591)
- TEST CONTEXT: at 1 µM; hits give low values
MEASURE NAME: percent remaining (%)

SMILES REPR	MEASURE NAME	OBSERVED VALUE
C=CCn1c(SCC(=O)c2ccc(O)c(O)c2)nnc1-c1ccccc1OC	percent remaining	82.6
